B1: HDV Ribozyme (parent)
chain: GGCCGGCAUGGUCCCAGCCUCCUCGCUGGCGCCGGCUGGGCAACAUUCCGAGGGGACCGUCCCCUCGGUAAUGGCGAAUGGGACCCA

variants of: B1; test: self-cleavage, relative activity (ratio to wild type); higher = more cleavage; co-transcriptional
Measurement Type: self-cleavage
Keep it simple and answer with nothing but the number.

self-cleavage for G40C G54C ? 0.343

self-cleavage for G6A G39A ? 0.277

self-cleavage for A45C G55U ? 0.525

self-cleavage for C13G C86U ? 0.151

self-cleavage for A8C U12A ? 0

self-cleavage for C22A C85U ? 0.345

self-cleavage for A8C G80C ? 0.133
